target: T1, cynomolgus soluble urokinase plasminogen activator receptor (suPAR) (cynomolgus, UniProt Q9GK78 23-303, limits assumed); assay: BLI (Octet) off-rate screen of scFv clones
T1 construct: Column head says only 'cynomologus'; also called cynomolgus suPAR; cynomolgus uPAR
T1 sequence (Q9GK78 23-303 limits assumed): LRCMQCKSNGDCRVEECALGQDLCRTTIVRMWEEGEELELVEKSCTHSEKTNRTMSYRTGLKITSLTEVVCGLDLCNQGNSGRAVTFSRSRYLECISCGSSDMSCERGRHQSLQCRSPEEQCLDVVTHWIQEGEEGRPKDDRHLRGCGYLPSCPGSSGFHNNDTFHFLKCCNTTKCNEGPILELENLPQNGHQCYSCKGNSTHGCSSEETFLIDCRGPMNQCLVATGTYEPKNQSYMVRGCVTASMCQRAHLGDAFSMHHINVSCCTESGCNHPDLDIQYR
measured.attribute: koff (s⁻¹)
Output spec: scalar in s⁻¹, unitless text.

Check out these entries, answers already filled in.
• suPAR_DB05_E04 (scFv, V domains shown, Screened as scFv) VH: QVQLVQSGAEVKKPGASVKVSCKASGYSFTSNYMHWVRQAPGQGLEWMGWIDHENGNTIYDQKFQGRVTMTRDTSTSTVYMELSSLRSEDTAVYYCARGYDVDWFVYWGQGTLVTVSS VL: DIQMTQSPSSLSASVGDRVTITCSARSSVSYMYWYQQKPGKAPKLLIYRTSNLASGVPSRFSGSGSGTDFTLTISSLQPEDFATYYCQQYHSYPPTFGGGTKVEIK = 0.000354
• suPAR_DB05_C11 (scFv, V domains shown, Screened as scFv) VH: QVQLVQSGAEVKKPGASVKVSCKASGYIFTSYYMHWVRQAPGQGLEWMGWIDPYSGATNYAQKFQGRVTMTRDTSTSTVYMELSSLRSEDTAVYYCARGYDVDWFVYWGQGTLVTVSS VL: DIQMTQSPSSLSASVGDRVTITCRARSSISYMYWYQQKPGKAPKLLIYRTSNLASGVPSRFSGSGSGTDFTLTISSLQPEDFATYYCQQYHSYPPTFGGGTKVEIK = 0.000168

Let us move to another entry and its koff.
Dear colleague, I am looking for the recorded koff of the following binder: suPAR_DB05_B01 (scFv, V domains shown, Screened as scFv) VH: QVQLVQSGAEVKKPGASVKVSCKASGYPFTSYYMHWVRQAPGQGLEWMGWIDHENGNTIYDQKFQGRVTMTRDTSTSTVYMELSSLRSEDTAVYYCARGYDVDWFVYWGQGTLVTVSS VL: DIQMTQSPSSLSASVGDRVTITCSASSSVSYMYWYQQKPGKAPKLLIYRTSNLASGVPSRFSGSGSGTDFTLTISSLQPEDFATYYCQQYHSYPPTFGGGTKVEIK
0.000232
